test system: Hek293T; experiment: Primary qHTS to identify gynecologic anti-cancer compounds using libraries of approved drugs and bioactive compounds (AID 1345084); conditions: Gynecologic cancer cell panel viability, ATPlite luminescence, 48 h, control line for the selectivity index; series mostly up to 57.5 µM; further: on the % scale 0 is the no-effect control and ±100 the full control effect; nearly all actives have a fitted effect of over 55% in size
Records with an inconclusive call do not appear. Active and inactive are the calls of the source. The call rests on the fitted dose curve; in most records, active means well fitted cell-killing curve with a large enough effect; inconclusive means small, poorly fitted or top-dose-only effect, or effect the other way; inactive means flat fitted curve, though single readings scatter.

molecule	activity change, negative = cytotoxicity
CC1(C)CC[C@]2(C(=O)O)CC[C@]3(C)C(=CCC4[C@@]5(C)CC[C@H](O[C@@H]6O[C@H](C(=O)O)[C@@H](O)[C@H](O)[C@H]6O)C(C)(CO)C5CC[C@]43C)C2C1 (stereo not given in full)	inactive
NC(=O)[C@H]1CCCCc2c1[nH]c1ccc(Cl)cc21	inactive
CC(=O)OC[C@@]12[C@H](O)C[C@]3(C)C(=CCC4[C@@]5(C)CC[C@H](O[C@@H]6O[C@H](C(=O)O)[C@@H](O[C@@H]7O[C@H](CO)[C@@H](O)[C@H](O)[C@H]7O)[C@H](O)[C@H]6O[C@@H]6O[C@H](CO)[C@@H](O)[C@H](O)[C@H]6O)[C@](C)(CO)C5CC[C@]43C)[C@@H]1CC(C)(C)[C@@H](OC(C)=O)[C@@H]2O (stereo not given in full)	0.0542% [at 11.6 µM] (inactive)
OC[C@H]1O[C@@H](OC(CCCCc2ccc(O)cc2)CCc2ccc(O)cc2)[C@H](O[C@@H]2OC[C@](O)(CO)[C@H]2O)[C@@H](O)[C@@H]1O (stereo not given in full)	inactive
C=C1C2(CCC(=O)OC2(C)C)CC(OC(=O)/C(C)=C/C)C2(C)C13OC14C(=O)OC(C)(C(=O)C12C(=O)OC4C)C3OC(C)=O (stereo not given)	inactive
